# Tested on: ICR mice
# assay-procedure: Glucose tolerance in fasted ICR mice: serum glucose by glucose-oxidase method after intraperitoneal glucose load
# Type: in vivo
# condition-set: serum glucose 3 h after modeling (2 g/kg glucose i.p. 2 h after administration; 1.5 h for diamicron), dose 100 mg/kg
quantity-kind: 3 h blood sugar (mg/dL)

{"compound": "O=C(CNCc1ccccc1Cl)Nc1nc(Br)cs1 [Compound I-2]", "test-system": "ICR mice", "quantity-kind": "3 h blood sugar", "unit-spec": "mg/dL", "result-number": 58.2}
{"compound": "Cl.O=C(CNCc1occc1[N+](=O)[O-])Nc1nc(Br)cs1 [Compound I-15]", "test-system": "ICR mice", "quantity-kind": "3 h blood sugar", "unit-spec": "mg/dL", "result-number": 64.1}
{"compound": "Cl.O=C(CNCc1ccccc1Cl)Nc1nc(Br)cs1 [Compound I-13]", "test-system": "ICR mice", "quantity-kind": "3 h blood sugar", "unit-spec": "mg/dL", "result-number": 68.1}
{"compound": "Cc1csc(NC(=O)CNCc2cccs2)n1 [Compound I-6]", "test-system": "ICR mice", "quantity-kind": "3 h blood sugar", "unit-spec": "mg/dL", "result-number": 76.6}

---

# Test system: ICR mice
# assay-procedure: Glucose tolerance in fasted ICR mice: serum glucose by glucose-oxidase method after intraperitoneal glucose load
# Type: in vivo
# condition-set: serum glucose 1 h after modeling (2 g/kg glucose i.p. 2 h after administration; 1.5 h for diamicron), dose 100 mg/kg
1 h blood sugar values for the compounds below.
quantity-kind: 1 h blood sugar (mg/dL)

{"compound": "Cc1ccc(S(=O)(=O)NC(=O)NN2CC3CCCC3C2)cc1 (stereo not drawn) [diamicron, reference compound]", "quantity-kind": "1 h blood sugar", "result-number": 140.3}
{"compound": "O=C(CNCc1sccc1Br)Nc1nc(Br)cs1 [Compound I-7]", "quantity-kind": "1 h blood sugar", "result-number": 130.2}
{"compound": "O=C(CNCc1ccccc1Cl)Nc1nc(Br)cs1 [Compound I-2]", "quantity-kind": "1 h blood sugar", "result-number": 153.3}
{"compound": "O=C(CNCc1ccccc1)Nc1nccs1 [Compound I-1]", "quantity-kind": "1 h blood sugar", "result-number": 182.3}
{"compound": "Cl.O=C(CNCc1ccccc1Cl)Nc1nc(Br)cs1 [Compound I-13]", "quantity-kind": "1 h blood sugar", "result-number": 166.5}
{"compound": "Cc1csc(NC(=O)CNCc2cccs2)n1.Cl [Compound I-14]", "quantity-kind": "1 h blood sugar", "result-number": 176.2}
{"compound": "COC(=O)c1csc(NC(=O)CNCc2scc(C)c2Br)n1 [Compound I-8]", "quantity-kind": "1 h blood sugar", "result-number": 102.0}
{"compound": "Cl.O=C(CNCc1occc1[N+](=O)[O-])Nc1nc(Br)cs1 [Compound I-15]", "quantity-kind": "1 h blood sugar", "result-number": 161.5}
{"compound": "Cc1csc(NC(=O)CNCc2cccs2)n1 [Compound I-6]", "quantity-kind": "1 h blood sugar", "result-number": 186.8}

---

3 h blood sugar values for the compounds below.
# Tested on: ICR mice
# assay-procedure: Glucose tolerance in fasted ICR mice: serum glucose by glucose-oxidase method after intraperitoneal glucose load
# Format: in vivo
# condition-set: serum glucose 3 h after modeling (2 g/kg glucose i.p. 2 h after administration; 1.5 h for diamicron), dose 100 mg/kg

{"compound": "O=C(CNCc1sccc1Br)Nc1nc(Br)cs1", "unit-spec": "mg/dL", "3 h blood sugar": 83.3}
{"compound": "Cc1csc(NC(=O)CNCc2cccs2)n1.Cl", "unit-spec": "mg/dL", "3 h blood sugar": 65.3}
{"compound": "Cc1ccc(S(=O)(=O)NC(=O)NN2CC3CCCC3C2)cc1 (centres unmarked) [diamicron, reference compound]", "unit-spec": "mg/dL", "3 h blood sugar": 77.2}
{"compound": "O=C(CNCc1ccccc1)Nc1nccs1", "unit-spec": "mg/dL", "3 h blood sugar": 60.0}
{"compound": "COC(=O)c1csc(NC(=O)CNCc2scc(C)c2Br)n1", "unit-spec": "mg/dL", "3 h blood sugar": 62.5}

Where do these numbers come from? They come from patent US20110281922A1.
